Origin of measurements: ChEMBL document CHEMBL5055675

Known growth at 10 µM of a selection of molecules
# Tested on: MCF7
# procedure.summary: Antiproliferative activity against human MCF7 cells assessed as cell growth at 10 uM incubated for 48 hrs by sulforhodamine B assay relative to control
# Type: functional
# cond: read-out: Activity
quantity.kind: growth at 10 µM (%)

test.smiles	target.system	quantity.kind	measured.value
COc1cc(CNC(=O)CCCC/C=C/C(C)C)ccc1OCc1nnc(Nc2ccccc2F)o1	MCF7	growth at 10 µM	66.9
COc1cc(CNC(=O)CCCC/C=C/C(C)C)ccc1OCc1nnc(Nc2cccc(Br)c2)o1	MCF7	growth at 10 µM	83.7
COc1cc(CNC(=O)CCCC/C=C/C(C)C)ccc1OCc1nnc(Nc2ccc([N+](=O)[O-])cc2)o1	MCF7	growth at 10 µM	55.2
COc1cc(CNC(=O)CCCC/C=C/C(C)C)ccc1OCc1nnc(SCCc2c[nH]c3ccccc23)o1	MCF7	growth at 10 µM	58.8

###

# System: PC-3
# procedure.summary: Antiproliferative activity against human PC-3 cells assessed as cell growth at 10 uM incubated for 48 hrs by sulforhodamine B assay relative to control
# Type: functional
# cond: read-out: Activity
Known growth at 10 µM of a selection of compounds
quantity.kind: growth at 10 µM (%)

test.smiles	target.system	result.units	measured.value
COc1cc(CNC(=O)CCCC/C=C/C(C)C)ccc1OCc1nnc(Nc2cccc(Br)c2)o1	PC-3	%	87.9
COc1cc(CNC(=O)CCCC/C=C/C(C)C)ccc1OCc1nnc(SCCc2c[nH]c3ccccc23)o1	PC-3	%	56.9
COc1cc(CNC(=O)CCCC/C=C/C(C)C)ccc1OCc1nnc(Nc2ccccc2F)o1	PC-3	%	72.5
COc1cc(CNC(=O)CCCC/C=C/C(C)C)ccc1OCc1nnc(Nc2ccc([N+](=O)[O-])cc2)o1	PC-3	%	37.6

###

# Test system: OVCAR-5
# procedure.summary: Antiproliferative activity against human OVCAR-5 cells assessed as cell growth at 10 uM incubated for 48 hrs by sulforhodamine B assay relative to control
# Format: functional
# cond: read-out: Activity
quantity.kind: growth at 10 µM (%)

test.smiles	target.system	result.units	measured.value
COc1cc(CNC(=O)CCCC/C=C/C(C)C)ccc1OCc1nnc(SCCc2c[nH]c3ccccc23)o1	OVCAR-5	%	102
COc1cc(CNC(=O)CCCC/C=C/C(C)C)ccc1OCc1nnc(Nc2cccc(Br)c2)o1	OVCAR-5	%	91.1
COc1cc(CNC(=O)CCCC/C=C/C(C)C)ccc1OCc1nnc(Nc2ccc([N+](=O)[O-])cc2)o1	OVCAR-5	%	101
COc1cc(CNC(=O)CCCC/C=C/C(C)C)ccc1OCc1nnc(Nc2ccccc2F)o1	OVCAR-5	%	77.7

###

# System: ACHN
# procedure.summary: Antiproliferative activity against human ACHN cells assessed as cell growth at 10 uM incubated for 48 hrs by sulforhodamine B assay relative to control
# Type: functional
# cond: read-out: Activity
Known growth at 10 µM of a selection of compounds

test.smiles	growth at 10 µM / %
COc1cc(CNC(=O)CCCC/C=C/C(C)C)ccc1OCc1nnc(Nc2ccccc2F)o1	56
COc1cc(CNC(=O)CCCC/C=C/C(C)C)ccc1OCc1nnc(SCCc2c[nH]c3ccccc23)o1	76.5
COc1cc(CNC(=O)CCCC/C=C/C(C)C)ccc1OCc1nnc(Nc2ccc([N+](=O)[O-])cc2)o1	41.2
COc1cc(CNC(=O)CCCC/C=C/C(C)C)ccc1OCc1nnc(Nc2cccc(Br)c2)o1	85.1

###

Known growth at 10 µM of a selection of molecules
# System: SF-268
# procedure.summary: Antiproliferative activity against human SF-268 cells assessed as cell growth at 10 uM incubated for 48 hrs by sulforhodamine B assay relative to control
# Type: functional
# cond: read-out: Activity

test.smiles	result.units	growth at 10 µM
COc1cc(CNC(=O)CCCC/C=C/C(C)C)ccc1OCc1nnc(Nc2ccccc2F)o1	%	45.5
COc1cc(CNC(=O)CCCC/C=C/C(C)C)ccc1OCc1nnc(SCCc2c[nH]c3ccccc23)o1	%	78.9
COc1cc(CNC(=O)CCCC/C=C/C(C)C)ccc1OCc1nnc(Nc2cccc(Br)c2)o1	%	92.6
COc1cc(CNC(=O)CCCC/C=C/C(C)C)ccc1OCc1nnc(Nc2ccc([N+](=O)[O-])cc2)o1	%	79.7
